- Method notes: Inhibition of bacterial L1 using meropenem as substrate incubated for 1 hr by spectrometry analysis
- Parameters: species or system Bacteria
Assay metric: IC50 (nM)
Kindly answer with a numeric value in nM, unit omitted.

*Q* Need IC50 of "CN(C(=S)NN=C(c1ccccn1)c1ccccn1)C1CCCCC1" , thanks.
*A* 1080

====

Reported IC50 values for a set of molecules
- Method notes: Inhibition of bacterial VIM-2 expressed in Escherichia coli BL21 (DE3) using meropenem as substrate incubated for 1 hr by spectrometry analysis
- Set-up: species or system Bacteria
Kindly answer with a numeric value in µM, unit omitted.

O=C(O)C(=O)CBr [BROMOPYRUVATE]    18.7

*Q* Need IC50 of "CN(C(=S)NN=C(c1ccccn1)c1ccccn1)C1CCCCC1" , thanks.
*A* 0.11
